# protocol description: Permeability studies, Franz diffusion cells
# Type: in vitro ADME
# condition details: pig, pH 6.4, pH 6.4
observation type: Papp at 120 min (×10⁻⁶ cm/s)
The reply should contain only the number, in ×10⁻⁶ cm/s.

QUERY: Indicate its recorded Papp at 120 min; the molecule in question is `CN1CCc2cccc3c2[C@H]1Cc1ccc(O)c(O)c1-3`
RESULT: 0.071

----------
# protocol description: Permeability studies, Franz diffusion cells
# Assay type: in vitro ADME
# condition details: pig, pH 8, pH 8.0
# Description: Freshly collected buccal tissues were obtained from pig and mucosa's were isolated carefully. The prepared mucosa membranes with approximate size of 4 cm^2 were mounted between donor and receiver chambers of Franz diffusion cells with available diffusion area of 1.77 cm^2. Test treatments and controls were run in quadruplicate. […] The concentration of each analyte was quantified by LC-MS/MS (Appendix I). […]
observation type: Papp at 120 min (×10⁻⁶ cm/s)
// units = ×10⁻⁶ cm/s; emit number, no label

QUERY: # return recorded Papp at 120 min for entry `CN1CCc2cccc3c2[C@H]1Cc1ccc(O)c(O)c1-3`
RESULT: 0.556
